# tgt: AbdA (Hox) (UniProt P29555 261-590)
# Sequence (P29555 261-590): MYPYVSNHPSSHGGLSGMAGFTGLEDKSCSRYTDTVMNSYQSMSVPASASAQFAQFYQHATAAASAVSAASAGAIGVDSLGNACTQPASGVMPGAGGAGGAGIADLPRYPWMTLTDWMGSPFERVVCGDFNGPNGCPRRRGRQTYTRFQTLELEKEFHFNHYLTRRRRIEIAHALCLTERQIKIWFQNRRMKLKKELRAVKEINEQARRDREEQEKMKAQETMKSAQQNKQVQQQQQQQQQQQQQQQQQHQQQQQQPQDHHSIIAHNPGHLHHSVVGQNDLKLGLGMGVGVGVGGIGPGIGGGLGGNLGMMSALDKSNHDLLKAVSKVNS
# methodNotes: EMSA; EMSA, 20 ul, 30 min, room temperature; 5X buffer as printed: 20% glycerol, 1 mg/ml BSA, 2.5 mM EDTA, '50mM 1M tris' pH 7.5, 50 mM KCl, 5 mM MgCl2, 2.5 mM DTT, 90 ug/ml poly(dI-dC); proteins 100-200 ng
# conditionParameters: protein: recombinant; tags: 6xHis

binder	binding result
motif-30 Hox2 mutant (dsDNA) DNA 1: GAAACAGGATAACCAGGACTAATCC DNA 2: GGATTAGTCCTGGTTATCCTGTTTC	no binding
motif-30 Hox1+2 mutant (dsDNA) DNA 1: GAAACAGGAGAACCAGGACTAATCC DNA 2: GGATTAGTCCTGGTTCTCCTGTTTC	no binding
motif-31 (dsDNA) DNA 1: ACACAATTTTCTAAGATCCACTGGAATCGGTATGCCGATAGTT DNA 2: AACTATCGGCATACCGATTCCAGTGGATCTTAGAAAATTGTGT	binds
motif-33 (dsDNA) DNA 1: TACTGCCTGATTAGTGTAAATAATTGCCAGTCCTTG DNA 2: CAAGGACTGGCAATTATTTACACTAATCAGGCAGTA	binds
